# IC50 listing for each entry below
Biological target: human NAMPT enzyme (His-hNAMPT) (Homo sapiens (Human), UniProt P43490)
Sequence (P43490 whole entry): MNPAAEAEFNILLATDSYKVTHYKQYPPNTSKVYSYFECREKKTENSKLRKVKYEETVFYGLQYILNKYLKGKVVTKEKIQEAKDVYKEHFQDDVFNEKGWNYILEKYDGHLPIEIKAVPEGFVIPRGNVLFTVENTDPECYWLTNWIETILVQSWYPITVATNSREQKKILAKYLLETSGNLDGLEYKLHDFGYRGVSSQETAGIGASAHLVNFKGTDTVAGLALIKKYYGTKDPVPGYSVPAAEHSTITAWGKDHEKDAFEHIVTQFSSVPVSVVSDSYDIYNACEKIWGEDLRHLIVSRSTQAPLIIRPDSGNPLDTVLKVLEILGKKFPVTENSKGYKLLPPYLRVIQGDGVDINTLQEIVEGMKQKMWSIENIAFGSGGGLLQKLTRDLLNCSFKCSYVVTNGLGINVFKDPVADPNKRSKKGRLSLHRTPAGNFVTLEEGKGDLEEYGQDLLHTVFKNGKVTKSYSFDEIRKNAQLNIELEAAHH
Assay: NAMPT enzymatic inhibition assay (fluorescence, NADH product)
Format: biochemical
Conditions: [HDB]; read-out: NAMPT IC50 (μM) [HDB]
endpoint.name: IC50

{"columns": ["compound", "endpoint.name", "measured"],
 "data": [
  ["N#Cc1cccc(N2C[C@@H]3[C@@H](CCNC(=O)/C=C/c4cccnc4)[C@@H]3C2)c1", "IC50", "< 0.01 µM"],
  ["CCN(CC)C(=O)C(c1ccccc1)N1C[C@@H]2[C@@H](CCNC(=O)/C=C/c3cccnc3)[C@@H]2C1 (stereo partly shown)", "IC50", "< 0.01 µM"],
  ["O=C(/C=C/c1cccnc1)NCC[C@@H]1[C@H]2CN(c3ncc4c(n3)CCOC4)C[C@@H]12", "IC50", "0.01 to 0.49 µM"],
  ["Nc1ccc(/C=C/C(=O)NCC[C@@H]2[C@H]3CN(c4nc(Cl)ncc4F)C[C@@H]23)cn1", "IC50", "0.01 to 0.49 µM"],
  ["Nc1ccc(/C=C/C(=O)NCC[C@@H]2[C@H]3CN(C(=O)c4ccccc4)C[C@@H]23)cn1", "IC50", "0.01 to 0.49 µM"],
  ["O=C(/C=C/c1cccnc1)NCC[C@@H]1[C@H]2CN(c3ccc(F)cc3)C(=O)[C@@H]12 (mixture of isomers)", "IC50", "0.01 to 0.49 µM"],
  ["CC(c1ccccc1)N1C[C@@H]2[C@@H](CCNC(=O)/C=C/c3cccnc3)[C@@H]2C1 (stereo partly shown)", "IC50", "0.01 to 0.49 µM"]
]}
